- Tested on: TT medullary thyroid cancer cells
- assay_text: MTS cell viability assay, TT
- Type: cell-based
- run_conditions: Table 1, 72-hour treatment
Provide the reported pIC50 of each item.
Scale: negative log10 of molar concentration, which is what pIC50 denotes.

GET /values?item= CC1=C(CO)C(=O)O[C@@H]([C@@H](C)[C@H]2CC[C@H]3[C@@H]4C[C@H]5O[C@]56[C@@H](O)C=CC(=O)[C@]6(C)[C@H]4CC[C@]23C)C1 [Withaferin A, reference compound] &system= TT medullary thyroid cancer cells returns pIC50: 5.95

Bench note, TT medullary thyroid cancer cells: CC1=C(CO)C(=O)O[C@@H]([C@@H](C)C2CC[C@H]3[C@@H]4C[C@H]5O[C@]56[C@@H](O)C=CC(=O)[C@]6(CO)[C@H]4CC[C@]23C)C1 (some centres unmarked) [Compound X001] , pIC50 reads 5.72
